# STUDY SYSTEM: human PD-1 stably expressed on Jurkat/IL-2 reporter cells (Jurkat/PD-1 cells) (human, UniProt Q15116 25-288)
# Sequence (Q15116 25-288): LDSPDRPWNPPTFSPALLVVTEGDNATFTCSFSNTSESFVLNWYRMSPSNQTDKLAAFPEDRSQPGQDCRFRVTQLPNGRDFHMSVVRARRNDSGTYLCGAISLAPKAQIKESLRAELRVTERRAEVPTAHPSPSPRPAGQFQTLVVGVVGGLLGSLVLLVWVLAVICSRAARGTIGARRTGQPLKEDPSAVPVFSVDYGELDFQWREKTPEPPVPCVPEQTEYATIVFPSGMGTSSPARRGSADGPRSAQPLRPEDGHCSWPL
# EXPERIMENT DESCRIPTION: flow cytometry, Jurkat/PD-1 cells
Kindly supply the reported Fold Increase over WT PD-L1 ECD-Fc values for the records listed here.
Answers are plain numbers, in fold.

Past entries and their recorded results:
variant PD-L1 ECD-Fc N45D, S131F, P198S (Fc fusion, not shown: a dimerising Fc or GST) FTVTVPKDLYVVEYGSNMTIECKFPVEKQLDLAALIVYWEMEDKDIIQFVHGEEDLKVQHSSYRQRARLLKDQLSLGNAALQITDVKLQDAGVYRCMISYGGADYKRITVKVNAPYNKINQRILVVDPVTFEHELTCQAEGYPKAEVIWTSSDHQVLSGKTTTTNSKREEKLFNVTSTLRINTTTNEIFYCTFRRLDSEENHTAELVIPELPLAHPPNER	23.2
variant PD-L1 ECD-Fc N45D, T183A, T192S, R194G (Fc fusion, not shown: a dimerising Fc or GST) FTVTVPKDLYVVEYGSNMTIECKFPVEKQLDLAALIVYWEMEDKDIIQFVHGEEDLKVQHSSYRQRARLLKDQLSLGNAALQITDVKLQDAGVYRCMISYGGADYKRITVKVNAPYNKINQRILVVDPVTSEHELTCQAEGYPKAEVIWTSSDHQVLSGKTTTTNSKREEKLFNVTSTLRINATTNEIFYCSFGRLDPEENHTAELVIPELPLAHPPNER	0.3
variant PD-L1 ECD-Fc V11E, N45D, T130A, P198T (Fc fusion, not shown: a dimerising Fc or GST) FTVTVPKDLYEVEYGSNMTIECKFPVEKQLDLAALIVYWEMEDKDIIQFVHGEEDLKVQHSSYRQRARLLKDQLSLGNAALQITDVKLQDAGVYRCMISYGGADYKRITVKVNAPYNKINQRILVVDPVASEHELTCQAEGYPKAEVIWTSSDHQVLSGKTTTTNSKREEKLFNVTSTLRINTTTNEIFYCTFRRLDTEENHTAELVIPELPLAHPPNER	27.4
variant PD-L1 ECD-Fc M41K, D43G, N45D, R64S, R195G (Fc fusion, not shown: a dimerising Fc or GST) FTVTVPKDLYVVEYGSNMTIECKFPVEKQLDLAALIVYWEKEGKDIIQFVHGEEDLKVQHSSYSQRARLLKDQLSLGNAALQITDVKLQDAGVYRCMISYGGADYKRITVKVNAPYNKINQRILVVDPVTSEHELTCQAEGYPKAEVIWTSSDHQVLSGKTTTTNSKREEKLFNVTSTLRINTTTNEIFYCTFRGLDPEENHTAELVIPELPLAHPPNER	27.4

Query variant PD-L1 ECD-Fc N45D, K111T, T183A, I188V (Fc fusion, not shown: a dimerising Fc or GST) FTVTVPKDLYVVEYGSNMTIECKFPVEKQLDLAALIVYWEMEDKDIIQFVHGEEDLKVQHSSYRQRARLLKDQLSLGNAALQITDVKLQDAGVYRCMISYGGADYKRITVTVNAPYNKINQRILVVDPVTSEHELTCQAEGYPKAEVIWTSSDHQVLSGKTTTTNSKREEKLFNVTSTLRINATTNEVFYCTFRRLDPEENHTAELVIPELPLAHPPNER yields Fold Increase over WT PD-L1 ECD-Fc of 21.7
